Tested on: LU99A
Experiment: relative viability (nuclei count vs DMSO), 5 days (fraction); higher = more cells survive
Settings: first compound 8 µM
Examples of molecules with documented relative viability follow.
measurement.type: relative viability

molecule="O=c1[nH]c2ccccc2n1C1CCN(CCCC(c2ccc(F)cc2)c2ccc(F)cc2)CC1 [Pimozide] + Cc1cc(Nc2cc(N3CCN(C)CC3)nc(Sc3ccc(NC(=O)C4CC4)cc3)n2)n[nH]1 [Tozasertib] (partner 0.1 µM)" system_under_test=LU99A measurement_type="relative viability" quantitative_readout=0.256
molecule="O=c1[nH]c2ccccc2n1C1CCN(CCCC(c2ccc(F)cc2)c2ccc(F)cc2)CC1 [Pimozide] + N=C(N)NC(=N)NCCc1ccccc1 [Phenformin] (partner 250 µM)" system_under_test=LU99A measurement_type="relative viability" quantitative_readout=0.897
molecule="O=c1[nH]c2ccccc2n1C1CCN(CCCC(c2ccc(F)cc2)c2ccc(F)cc2)CC1 [Pimozide] + COc1cc2c(Oc3ccc(NC(=O)C4(C(=O)Nc5ccc(F)cc5)CC4)cc3F)ccnc2cc1OCCCN1CCOCC1 [Foretinib] (partner 0.25 µM)" system_under_test=LU99A measurement_type="relative viability" quantitative_readout=0.922
molecule="O=c1[nH]c2ccccc2n1C1CCN(CCCC(c2ccc(F)cc2)c2ccc(F)cc2)CC1 [Pimozide] + CC1(C)CCC(c2ccc(Cl)cc2)=C(CN2CCN(c3ccc(C(=O)NS(=O)(=O)c4ccc(N[C@H](CCN5CCOCC5)CSc5ccccc5)c(S(=O)(=O)C(F)(F)F)c4)cc3)CC2)C1 [Navitoclax] (partner 0.5 µM)" system_under_test=LU99A measurement_type="relative viability" quantitative_readout=0.806
